Test system: Rhizomucor pusillus 46342
Test: In vitro antifungal assay (Example IX), microdilution broth, MEC
Assay type: cell-based
Conditions: minimum effective concentration (shortening of hyphae), 35° C., 40-48 h, RPMI1640
Observable: minimal effective concentration

[
  {
    "Compound": "Nc1ncccc1-c1cc(Cc2ccc(CNc3cccc(F)c3F)cc2)no1 [compound 108]",
    "Recorded measurement": "0.1 to 1 µg/mL"
  },
  {
    "Compound": "COc1cc(COc2ccc(Cc3cc(-c4cccnc4N)on3)cn2)c(F)cn1 [compound 207]",
    "Recorded measurement": "> 1 µg/mL"
  },
  {
    "Compound": "Nc1ncccc1-c1cc(Cc2ccc(OCc3nccs3)nc2)no1 [compound 42]",
    "Recorded measurement": "0.1 to 1 µg/mL"
  },
  {
    "Compound": "Nc1ncccc1-c1cc(Cc2ccc(OCC(c3ccccc3)c3ccccc3)nc2)no1 [compound 215]",
    "Recorded measurement": "> 1 µg/mL"
  },
  {
    "Compound": "Nc1ncccc1-c1cc(Cc2ccc(N3CCOCC3)nc2)no1 [compound 227]",
    "Recorded measurement": "> 1 µg/mL"
  },
  {
    "Compound": "Nc1ncccc1-c1cc(Cc2cccc(OCc3ccccc3F)n2)no1 [compound 90]",
    "Recorded measurement": "> 1 µg/mL"
  },
  {
    "Compound": "Nc1ncccc1-c1cc(Cc2ccc(OCc3ccc(Cl)s3)nc2)no1 [compound 221]",
    "Recorded measurement": "0.1 to 1 µg/mL"
  },
  {
    "Compound": "Nc1ncccc1-c1cc(Cc2ccc(OCCc3ccc(F)cc3)nc2)no1 [compound 79]",
    "Recorded measurement": "0.1 to 1 µg/mL"
  },
  {
    "Compound": "Nc1ncccc1-c1cc(Cc2ccc(CNCC3CCOCC3)cc2)no1 [compound 95]",
    "Recorded measurement": "> 1 µg/mL"
  }
]

* * *

The reader will find MIC measurements below, all made with Cryptococcus neoformans H99.

[
  {
    "Compound smiles": "Nc1ncccc1-c1cc(Cc2cnc(OCc3ccccc3F)c(F)c2)no1",
    "MIC": "0.1 to 1 µg/mL"
  },
  {
    "Compound smiles": "Nc1ncccc1-c1cc(Cc2ccc(OCCc3ccccc3F)nc2)no1",
    "MIC": "0.01 to 0.1 µg/mL"
  },
  {
    "Compound smiles": "Nc1ncccc1-c1cc(Cc2ccc(Oc3cccc(Cl)n3)cc2)no1",
    "MIC": "≤ 0.01 µg/mL"
  },
  {
    "Compound smiles": "Nc1ncccc1-c1cnn(Cc2ccc(OCc3ccccc3)nc2)c1",
    "MIC": "0.01 to 0.1 µg/mL"
  },
  {
    "Compound smiles": "Nc1ncccc1-c1cc(Cc2ccc(COc3cc(F)cc(F)c3F)cc2)no1",
    "MIC": "0.1 to 1 µg/mL"
  },
  {
    "Compound smiles": "Nc1ncccc1-c1cc(Cc2ccc(CNc3ncccn3)cc2)no1",
    "MIC": "0.1 to 1 µg/mL"
  },
  {
    "Compound smiles": "Nc1ncccc1-c1cc(Cc2ccc(Nc3ccccc3)nc2)no1",
    "MIC": "0.1 to 1 µg/mL"
  },
  {
    "Compound smiles": "Nc1ncccc1-c1cc(Cc2ccc(-c3ccc(F)cc3)nc2)no1",
    "MIC": "0.1 to 1 µg/mL"
  },
  {
    "Compound smiles": "Nc1ncccc1-c1cc(Cc2ccc(Oc3cccc(F)n3)c(F)c2)no1",
    "MIC": "0.01 to 0.1 µg/mL"
  },
  {
    "Compound smiles": "Nc1ncccc1-c1cc(Cc2ccc(Oc3ccccn3)cc2)no1",
    "MIC": "0.01 to 0.1 µg/mL"
  },
  {
    "Compound smiles": "Nc1ncccc1-c1cc(Cc2ccc(COC3CCCCC3)cc2)no1",
    "MIC": "0.1 to 1 µg/mL"
  },
  {
    "Compound smiles": "CCn1cc(Cc2ccc(Cc3cc(-c4cccnc4N)on3)cc2)cn1",
    "MIC": "0.1 to 1 µg/mL"
  },
  {
    "Compound smiles": "Cc1c(OCC(F)(F)F)ccnc1COc1ccc(Cc2cc(-c3cccnc3N)on2)cn1",
    "MIC": "> 1 µg/mL"
  },
  {
    "Compound smiles": "Nc1ncccc1-c1cc(Cc2ccc(OCc3cnccn3)nc2)no1",
    "MIC": "0.1 to 1 µg/mL"
  },
  {
    "Compound smiles": "Nc1ncccc1-c1cc(Cc2ccc(OCc3ccccc3F)nc2)no1",
    "MIC": "0.01 to 0.1 µg/mL"
  },
  {
    "Compound smiles": "Nc1ncccc1-c1cc(Cc2ccc(OCC3CC3)nc2)no1",
    "MIC": "0.01 to 0.1 µg/mL"
  },
  {
    "Compound smiles": "Nc1ncccc1-c1cc(Cc2ccc(OCc3ccnc(Cl)c3)nc2)no1",
    "MIC": "≤ 0.01 µg/mL"
  },
  {
    "Compound smiles": "Nc1ncccc1-c1cc(Cc2ccc(Oc3ccc(F)cc3F)nc2)no1",
    "MIC": "0.01 to 0.1 µg/mL"
  },
  {
    "Compound smiles": "Nc1ncccc1-c1cc(Cc2cnc(Nc3ccccc3F)c(F)c2)no1",
    "MIC": "0.01 to 0.1 µg/mL"
  }
]
